# Measured On: KDM5A (Homo sapiens, UniProt P29375)
# Construct: Full length KDM5A enzyme was expressed and purified inhouse; made in house
# Sequence (P29375 whole entry): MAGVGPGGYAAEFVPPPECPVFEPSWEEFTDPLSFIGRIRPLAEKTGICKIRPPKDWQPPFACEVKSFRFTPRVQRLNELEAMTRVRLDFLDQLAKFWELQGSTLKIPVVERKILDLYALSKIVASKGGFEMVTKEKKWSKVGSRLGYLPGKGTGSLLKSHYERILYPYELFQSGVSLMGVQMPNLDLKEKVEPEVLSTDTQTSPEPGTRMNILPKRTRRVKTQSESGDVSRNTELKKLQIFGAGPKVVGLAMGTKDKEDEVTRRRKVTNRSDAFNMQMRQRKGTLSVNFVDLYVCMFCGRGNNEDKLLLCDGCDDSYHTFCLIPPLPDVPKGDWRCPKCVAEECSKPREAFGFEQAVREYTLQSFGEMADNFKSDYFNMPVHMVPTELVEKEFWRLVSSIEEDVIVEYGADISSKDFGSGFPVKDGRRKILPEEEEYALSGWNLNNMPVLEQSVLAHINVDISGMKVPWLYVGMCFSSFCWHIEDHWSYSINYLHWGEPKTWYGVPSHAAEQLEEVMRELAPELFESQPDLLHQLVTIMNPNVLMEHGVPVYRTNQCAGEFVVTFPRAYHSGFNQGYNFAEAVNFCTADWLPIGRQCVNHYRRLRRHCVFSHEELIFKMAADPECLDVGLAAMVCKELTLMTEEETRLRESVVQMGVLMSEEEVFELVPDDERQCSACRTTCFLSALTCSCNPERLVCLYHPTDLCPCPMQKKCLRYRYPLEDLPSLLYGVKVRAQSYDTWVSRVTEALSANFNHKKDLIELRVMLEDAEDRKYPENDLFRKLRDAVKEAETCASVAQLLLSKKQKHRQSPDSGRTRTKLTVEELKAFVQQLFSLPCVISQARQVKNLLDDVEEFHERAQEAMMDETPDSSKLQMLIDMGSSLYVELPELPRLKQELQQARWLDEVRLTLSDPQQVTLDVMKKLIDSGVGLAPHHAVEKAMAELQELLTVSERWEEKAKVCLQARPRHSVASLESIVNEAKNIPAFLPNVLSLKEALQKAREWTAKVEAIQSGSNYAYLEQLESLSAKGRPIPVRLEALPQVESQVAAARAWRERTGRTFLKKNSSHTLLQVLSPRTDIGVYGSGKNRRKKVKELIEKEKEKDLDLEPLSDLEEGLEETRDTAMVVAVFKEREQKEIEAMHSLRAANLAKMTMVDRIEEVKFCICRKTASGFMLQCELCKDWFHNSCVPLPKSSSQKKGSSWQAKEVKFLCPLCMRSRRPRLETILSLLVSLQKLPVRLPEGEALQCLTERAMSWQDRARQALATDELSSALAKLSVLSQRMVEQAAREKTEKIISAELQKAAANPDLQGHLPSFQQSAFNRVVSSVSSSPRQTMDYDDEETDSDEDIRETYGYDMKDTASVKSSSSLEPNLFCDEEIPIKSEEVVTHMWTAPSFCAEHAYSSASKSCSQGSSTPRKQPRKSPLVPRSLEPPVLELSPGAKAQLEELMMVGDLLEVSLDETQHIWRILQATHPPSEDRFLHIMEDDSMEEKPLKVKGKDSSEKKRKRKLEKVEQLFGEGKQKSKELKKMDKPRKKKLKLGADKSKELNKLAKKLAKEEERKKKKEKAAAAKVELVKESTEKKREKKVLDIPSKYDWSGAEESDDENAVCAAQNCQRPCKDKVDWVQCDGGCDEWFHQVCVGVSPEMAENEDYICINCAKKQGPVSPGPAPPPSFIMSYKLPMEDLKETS
# Protocol Summary: KDM5 enzyme assay, KDM5A HTRF (Example 463)
# Format: biochemical
# Condition Info: compounds of Examples 1-432; read-out: Example 463 Assay KDM5A HTRF IC50
Threshold check on IC50: strictly below 20 nM is Satisfied; on or above 20 nM is Not satisfied.

- CC(C)c1c(-c2cc(F)cc(C(N)=O)c2)[nH]c2c(C#N)cnn2c1=O: Satisfied
- Cc1cc(-c2[nH]c3c(C#N)cnn3c(=O)c2C(C)C)cc(C)c1Cl: Not satisfied
- CC(C)c1c(-c2ccc(N3CCOCC3)cc2)[nH]c2c(C#N)cnn2c1=O: Not satisfied

Please indicate whether the reported IC50 of CC(C)c1c(-c2cnn(CCNCC(F)(F)F)c2)[nH]c2c(C#N)cnn2c1=O is strictly below 20 nM.
Satisfied

Strictly below 20 nM in IC50? CC(C)c1c(-c2ccc(C3CC3)c(C(F)(F)F)c2)[nH]c2c(C#N)cnn2c1=O
Not satisfied

Please state whether IC50 is below 20 nM for CC(C)c1c(-c2ccc(CO)o2)[nH]c2c(C#N)cnn2c1=O
Satisfied

Dear colleague, could you confirm whether IC50 of CCCCn1cc(-c2[nH]c3c(C#N)cnn3c(=O)c2C(C)C)cn1 falls below 20 nM? Thanks.
Satisfied

* * *

# Measured On: GASC1 (Homo sapiens, UniProt Q9H3R0)
# Construct: 6×His tagged recombinant GASC1 (N 350aa) was purified from E. Coli BL21(DE3); 6xHis
# Sequence (Q9H3R0 1-350 limits assumed): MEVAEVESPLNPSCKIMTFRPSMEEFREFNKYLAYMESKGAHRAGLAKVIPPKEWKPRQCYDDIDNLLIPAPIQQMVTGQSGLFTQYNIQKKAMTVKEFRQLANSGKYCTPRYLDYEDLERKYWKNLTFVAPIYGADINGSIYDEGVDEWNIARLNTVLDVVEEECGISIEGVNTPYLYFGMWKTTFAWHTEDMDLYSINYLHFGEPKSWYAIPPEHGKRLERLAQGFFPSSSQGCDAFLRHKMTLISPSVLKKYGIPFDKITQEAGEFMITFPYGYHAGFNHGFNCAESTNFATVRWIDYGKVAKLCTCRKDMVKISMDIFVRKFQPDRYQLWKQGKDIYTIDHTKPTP
# Protocol Summary: GASC1 demethylation assay on H3K9Me3 peptide (RapidFire HT-MS)
# Condition Info: read-out: GASC1 Inhibition
# From the text: 6×His tagged recombinant GASC1 (N 350aa) was purified from E. Coli BL21(DE3) to near homogeneity. […] All the reactions were read by RapidFire™ HT-MS platform developed in BioTrove Inc, and the method has been described in detail previously (Assay and Drug Development Technologies, 2004; 2(4): 373-381). Briefly, at BioTrove, plates were thawed and immediately analyzed using RapidFire™ system coupled to a Sciex API4000 triple quadrapole mass spectrometer. […]
pIC50: −log10 of the molar value.
Reported Property: pIC50

- CCc1c(C)n(C)c2c(C#N)cnn2c1=O [Compound I-29]: ≤ 4.30
- CCc1c(CNC)[nH]c2c(C#N)cnn2c1=O [Compound I-52]: 5.00 to 6.00
- Cc1[nH]c2c(C#N)cnn2c(=O)c1Cc1ccccc1 [Compound I-6]: ≤ 4.30
- N#Cc1cnn2c(=O)c3c(n(-c4ccccc4)c12)CCCC3 [Compound I-19]: ≤ 4.30
- CCOC(=O)c1[nH]c2c(C#N)c(C)nn2c(=O)c1CC [Compound I-26]: 5.00 to 6.00

pIC50 value, target or system GASC1 (Homo sapiens, UniProt Q9H3R0), for CCCc1c(C(=O)OCC)[nH]c2c(C#N)cnn2c1=O [Compound I-43] : 5.00 to 6.00

# N#Cc1cnn2c(=O)c3c(n(Cc4ccccc4)c12)CCCC3 [Compound I-18] with GASC1 (Homo sapiens, UniProt Q9H3R0): pIC50 is ≤ 4.30

Summary line: C#CCc1c(C)[nH]c2c(C#N)cnn2c1=O [Compound I-46] , GASC1 (Homo sapiens, UniProt Q9H3R0), reported pIC50 = ≥ 6.00

pIC50 on GASC1 (Homo sapiens, UniProt Q9H3R0) for CCc1c(CO)[nH]c2c(C#N)cnn2c1=O [Compound I-21] is ≥ 6.00

Hey, GASC1 (Homo sapiens, UniProt Q9H3R0) data for Cc1c(C(C)C)c(=O)n2ncc(C#N)c2n1-c1ccccc1 [Compound I-20] : pIC50 came out at 5.00 to 6.00

* * *

# Measured On: KDM5A (Homo sapiens, UniProt P29375)
# Construct: Full length KDM5A enzyme was expressed and purified inhouse; made in house
# Protocol Summary: KDM5 enzyme assay, KDM5A HTRF (Example 463)
# Type: biochemical
# Condition Info: compounds of Examples 1-432; read-out: Example 463 Assay KDM5A HTRF IC50
Reported Property: IC50 (nM)
The figure you give is taken to be in nM; do not add the unit.

Here is how some molecules turned out for IC50.
* Cc1ccc(-c2[nH]c3c(C#N)cnn3c(=O)c2C(C)C)cc1C | 15
* CC(C)c1c(-c2ccc(F)c(C(=O)NC3CCCCC3)c2)[nH]c2c(C#N)cnn2c1=O | 52
* CC(C)c1c(-c2ccc(N3CCN(C(=O)OC(C)(C)C)CC3)cc2)[nH]c2c(C#N)cnn2c1=O | 200
* CC(C)c1c(-c2cccc(CCN3CCOCC3)c2)[nH]c2c(C#N)cnn2c1=O | 15
* CC(C)c1c(-c2ccc(OC(F)(F)F)c(Cl)c2)[nH]c2c(C#N)cnn2c1=O | 33

Looking up C=CC(=O)N1CC=C(c2[nH]c3c(C#N)cnn3c(=O)c2C(C)C)C1 , I see its IC50 listed as 28

molecule CC(C)c1c(-c2cnn(-c3ccncc3)c2)[nH]c2c(C#N)cnn2c1=O , IC50 observed: 14

According to the records, this molecule CC(C)c1c(-c2cnn(C3CCC(F)C3)c2)[nH]c2c(C#N)cnn2c1=O (centres unmarked) displays IC50 of 33

* * *

Here the recorded IC50 is given for each entry.
# Measured On: KDM5A (Homo sapiens)
# Construct: Full length KDM5A enzyme was expressed and purified inhouse; made in house
# Protocol Summary: KDM5 enzyme assay, KDM5A HTRF (Example 463)
# Format: biochemical
# Condition Info: compounds of Examples 1-432; read-out: Example 463 Assay KDM5A HTRF IC50

# annotated cases, reported IC50 shown
• CC(C)c1c(-c2ccc(Cl)c(C(=O)N3CCOCC3)c2)[nH]c2c(C#N)cnn2c1=O [Example 96] = 34 nM
• CCc1c(-c2cccc(N3CCC(C)(C)C3=O)c2)[nH]c2c(C#N)cnn2c1=O [Compound 422] = 29 nM
• CC(C)c1c(-c2cc(C3CC3)n[nH]2)[nH]c2c(C#N)cnn2c1=O [Compound 405] = 12 nM

With those in mind, consider the next molecule.
GET /value?item= CCc1c(-c2cccc(N3CCC(c4ccccc4)C3=O)c2)[nH]c2c(C#N)cnn2c1=O (stereo not shown) [Compound 423] &field=IC50 returns 20 nM

* * *

IC50 values by entry
# Measured On: KDM5A (Homo sapiens)
# Construct: Full length KDM5A enzyme was expressed and purified inhouse; made in house
# Protocol Summary: KDM5 enzyme assay, KDM5A HTRF (Example 463)
# Assay type: biochemical
# Condition Info: compounds of Examples 1-432; read-out: Example 463 Assay KDM5A HTRF IC50
Supply the numeric figure in nM, leaving out any unit text.

Guide cases for IC50, answers given:
* CC(C)c1c(-c2cnn(Cc3ccc(-c4ccccc4)cc3)c2)[nH]c2c(C#N)cnn2c1=O [Example 135] | 5.8
* COc1ccc(Cn2cc(-c3[nH]c4c(C#N)cnn4c(=O)c3C(C)C)cn2)cc1 [Example 116] | 8
* Cc1nc2cc(-c3[nH]c4c(C#N)cnn4c(=O)c3C(C)C)ccc2s1 [Example 121] | 10
* CC(C)c1c(-c2cccc(N3CCCC3=O)c2)[nH]c2c(C#N)cnn2c1=O [Example 42] | 21
* CC(C)c1c(-c2cnn(Cc3cscn3)c2)[nH]c2c(C#N)cnn2c1=O [Example 141] | 9.3
* CC(C)c1c(-c2cccc(C(N)=O)c2)[nH]c2c(C#N)cnn2c1=O [Example 267] | 9.8
* CC(C)c1c(-c2cnn(Cc3cccc4ccccc34)c2)[nH]c2c(C#N)cnn2c1=O [Example 134] | 5.5

With KDM5A (Homo sapiens) as the test system, CC(C)c1c(-c2cnn([C@H]3CC[C@@H](O)C3)c2)[nH]c2c(C#N)cnn2c1=O [Compound 381] showed IC50 of 30

* * *

# Measured On: KDM5A (Homo sapiens, UniProt P29375)
# Construct: Full length KDM5A enzyme was expressed and purified inhouse; made in house
# Protocol Summary: KDM5 enzyme assay, KDM5A HTRF (Example 463)
# Format: biochemical
# Condition Info: compounds of Examples 1-432; read-out: Example 463 Assay KDM5A HTRF IC50
Recorded measurements of pIC50, one per entry
Value format note: pIC50 is -log10 of concentration (mol/L); just state the number.

Example cases with answers are listed next.
- CC(C)c1c(-c2cnn(CCN3CC(F)(F)C3)c2)[nH]c2c(C#N)cnn2c1=O [Compound 370]: 8.10
- CC(C)c1c(-c2ccc(Oc3ccccc3)nc2)[nH]c2c(C#N)cnn2c1=O [Example 276]: 7.46
- CC(C)c1c(-c2cnn(C(C)(C)c3ccccc3)c2)[nH]c2c(C#N)cnn2c1=O [Example 9]: 7.40
- CC(C)c1c(-c2ccc(C(=O)N3CCOCC3)cc2)[nH]c2c(C#N)cnn2c1=O [Compound 376]: 7.72

Observed pIC50, KDM5A (Homo sapiens, UniProt P29375), Cn1c(-c2ccccc2)c(Cl)c(=O)n2ncc(C#N)c12 [Example 219] : 5.37

pIC50 on KDM5A (Homo sapiens, UniProt P29375) for CC(=O)N1CC=C(c2[nH]c3c(C#N)cnn3c(=O)c2C(C)C)C1 [Example 288] is 7.92

Summary: CC(C)c1c(C2=CCOC2)[nH]c2c(C#N)cnn2c1=O [Example 82] , KDM5A (Homo sapiens, UniProt P29375), pIC50 = 7.92

The reported KDM5A (Homo sapiens, UniProt P29375) pIC50 of CC(C)c1c(-c2cccc(C(=O)N3CCN(C)CC3)c2)[nH]c2c(C#N)cnn2c1=O [Compound 400] is 7.46

Result for CC(C)c1c(-c2cccc(CC(N)=O)c2)[nH]c2c(C#N)cnn2c1=O [Example 282] , tested on KDM5A (Homo sapiens, UniProt P29375), pIC50: 8.10
